Where do these numbers come from? They come from ChEMBL document CHEMBL5325460.

Target: Human immunodeficiency virus type 1 reverse transcriptase (Human immunodeficiency virus 1, UniProt Q72547)
pIC50: −log10 of the molar value.

compound | readingQualifier | pIC50
O=C1C2=C(Nc3[nH]c(=O)[nH]c(=O)c3C2c2ccc(O)c(O)c2)c2ccccc21 (centres undefined) | = | 4.95
COc1cc(C2C3=C(Nc4[nH]c(=O)[nH]c(=O)c42)c2ccccc2C3=O)cc(OC)c1O (centres undefined) | = | 4.77
O=C1C2=C(Nc3[nH]c(=O)[nH]c(=O)c3C2c2ccc(O)cc2)c2ccccc21 (centres undefined) | < | 4.00
CCOC(=O)C(=O)CC(=O)/C=C/c1cccn1Cc1ccccc1Cl | = | 5.06
COc1cc(C2C3=C(Nc4[nH]c(=O)[nH]c(=O)c42)c2ccccc2C3=O)cc(OC)c1OC (centres undefined) | = | 4.67
O=C1C2=C(Nc3[nH]c(=O)[nH]c(=O)c3C2c2cccc(O)c2)c2ccccc21 (centres undefined) | = | 4.03
COc1cc(C2C3=C(Nc4[nH]c(=O)[nH]c(=O)c42)c2ccccc2C3=O)ccc1O (centres undefined) | < | 4.00
COc1ccc(C2C3=C(Nc4[nH]c(=O)[nH]c(=O)c42)c2ccccc2C3=O)cc1OC (centres undefined) | = | 4.69
COc1ccc(C2C3=C(Nc4[nH]c(=O)[nH]c(=O)c42)c2ccccc2C3=O)cc1O (centres undefined) | < | 4.00
